- System: CXCR4 Tropic Clade B HIV-192HT599
- experimental details: Anti-HIV activity in human PBMCs, reverse transcriptase in culture supernatants
- Assay type: cell-based
- condition info: PBMC, Incubation Time 24 hours, 7 days in culture
pEC50: −log10 of the molar value.
measured metric: pEC50

INSERT INTO results (smiles_structure, endpoint_value) VALUES
  ('Cn1cnc([N+](=O)[O-])c1Sc1ccccc1C(=O)NCCC(N)=O', 5.35);

###

- experimental details: Pharmacokinetics in cynomolgus macaques
- Format: in vivo
- condition info: cynomolgus monkey, 300 mg/kg p.o. oral gavage, blood
measured metric: half-life (h)

INSERT INTO measurements (smiles_structure, endpoint_value) VALUES
  ('Cn1cnc([N+](=O)[O-])c1Sc1ccccc1C(=O)NCCC(N)=O', 7.6);

###

- experimental details: Pharmacokinetics in cynomolgus macaques
- Assay type: in vivo
- condition info: cynomolgus monkey, 300 mg/kg p.o. oral gavage, blood
measured metric: AUC (ng·h/mL)

INSERT INTO assay_data (smiles_structure, endpoint_value) VALUES
  ('Cn1cnc([N+](=O)[O-])c1Sc1ccccc1C(=O)NCCC(N)=O', 5780);
